EXPERIMENTAL_TARGET: Voltage-dependent L-type calcium channel subunit alpha-1C (Oryctolagus cuniculus, UniProt P15381)
Sequence (P15381 whole entry): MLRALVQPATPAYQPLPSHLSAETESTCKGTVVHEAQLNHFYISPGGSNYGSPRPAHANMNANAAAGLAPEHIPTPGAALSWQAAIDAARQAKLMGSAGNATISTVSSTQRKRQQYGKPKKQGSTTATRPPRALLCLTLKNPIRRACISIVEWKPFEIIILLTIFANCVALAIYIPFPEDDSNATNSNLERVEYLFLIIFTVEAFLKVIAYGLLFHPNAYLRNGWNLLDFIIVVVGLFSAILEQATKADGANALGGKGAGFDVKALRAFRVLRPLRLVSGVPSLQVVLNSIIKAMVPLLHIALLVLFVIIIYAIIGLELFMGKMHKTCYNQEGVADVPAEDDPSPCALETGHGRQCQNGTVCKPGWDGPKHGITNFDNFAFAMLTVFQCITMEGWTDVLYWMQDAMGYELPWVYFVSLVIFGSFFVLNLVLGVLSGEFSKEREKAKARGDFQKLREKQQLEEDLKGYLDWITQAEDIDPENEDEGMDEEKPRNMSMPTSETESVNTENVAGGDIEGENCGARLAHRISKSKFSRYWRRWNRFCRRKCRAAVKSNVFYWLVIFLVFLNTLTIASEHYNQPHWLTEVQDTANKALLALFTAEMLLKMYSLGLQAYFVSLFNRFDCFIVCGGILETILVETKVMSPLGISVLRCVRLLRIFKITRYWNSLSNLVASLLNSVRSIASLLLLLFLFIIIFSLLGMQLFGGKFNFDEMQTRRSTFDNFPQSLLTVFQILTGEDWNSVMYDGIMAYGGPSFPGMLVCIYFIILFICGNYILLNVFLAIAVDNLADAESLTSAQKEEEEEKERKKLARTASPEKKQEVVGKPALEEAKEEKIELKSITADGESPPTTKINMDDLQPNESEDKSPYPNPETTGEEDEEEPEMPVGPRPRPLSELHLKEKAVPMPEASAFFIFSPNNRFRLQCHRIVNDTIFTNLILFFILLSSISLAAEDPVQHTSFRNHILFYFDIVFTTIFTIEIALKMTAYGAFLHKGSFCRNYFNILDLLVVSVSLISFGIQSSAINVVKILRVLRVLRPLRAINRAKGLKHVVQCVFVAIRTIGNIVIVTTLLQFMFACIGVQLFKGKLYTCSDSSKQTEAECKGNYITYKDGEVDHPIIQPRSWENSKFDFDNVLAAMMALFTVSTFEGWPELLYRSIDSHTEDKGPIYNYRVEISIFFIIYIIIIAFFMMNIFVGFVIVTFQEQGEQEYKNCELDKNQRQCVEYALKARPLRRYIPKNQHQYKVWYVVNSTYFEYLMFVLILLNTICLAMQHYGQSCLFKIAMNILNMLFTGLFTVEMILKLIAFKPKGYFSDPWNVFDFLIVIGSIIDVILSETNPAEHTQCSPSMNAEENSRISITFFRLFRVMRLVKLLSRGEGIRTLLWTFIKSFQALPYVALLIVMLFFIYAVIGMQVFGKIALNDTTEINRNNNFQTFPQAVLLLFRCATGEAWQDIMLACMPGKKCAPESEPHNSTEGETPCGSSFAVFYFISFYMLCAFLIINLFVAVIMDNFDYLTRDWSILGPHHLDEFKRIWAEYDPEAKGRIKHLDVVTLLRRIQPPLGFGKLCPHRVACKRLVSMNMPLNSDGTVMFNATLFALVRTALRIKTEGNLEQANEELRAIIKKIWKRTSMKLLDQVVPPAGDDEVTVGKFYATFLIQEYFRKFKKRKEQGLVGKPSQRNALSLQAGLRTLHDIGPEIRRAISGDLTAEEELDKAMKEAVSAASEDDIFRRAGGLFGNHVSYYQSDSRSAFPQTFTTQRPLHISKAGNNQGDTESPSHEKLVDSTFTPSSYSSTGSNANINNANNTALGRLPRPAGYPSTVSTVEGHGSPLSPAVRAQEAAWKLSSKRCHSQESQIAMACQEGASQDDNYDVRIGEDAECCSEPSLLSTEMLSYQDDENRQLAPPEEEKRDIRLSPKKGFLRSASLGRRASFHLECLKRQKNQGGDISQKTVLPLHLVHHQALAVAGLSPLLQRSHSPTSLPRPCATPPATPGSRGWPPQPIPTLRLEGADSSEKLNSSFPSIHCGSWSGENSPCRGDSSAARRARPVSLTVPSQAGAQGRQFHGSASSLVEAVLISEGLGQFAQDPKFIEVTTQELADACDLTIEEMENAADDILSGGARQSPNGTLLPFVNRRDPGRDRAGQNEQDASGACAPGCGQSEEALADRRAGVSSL
ASSAY_NAME: ChEBML_164619
MEASUREMENT_LABEL: IC50 (nM)

A: CC1=NC(C)=C(C(=O)OCC2CCCCO2)C(c2ccccc2[N+](=O)[O-])C1=C(O)OCN1C(=O)c2ccccc2S1(=O)=O (centres undefined)
B: COCCOC(=O)C1C(C)=NC(C)=C(C(=O)OCN2C(=O)c3ccccc3S2(=O)=O)C1c1cccc(Cl)c1Cl (centres undefined)
C: COC(=O)C1C(C)=NC(C)=C(C(=O)OCN2C(=O)c3ccccc3S2(=O)=O)C1c1cccc(Cl)c1Cl (centres undefined)
// sort entries: IC50, high to low Your answer should be the labels, listed in the requested order.
A, C, B
